B1: TPR t1 (parent)
chain: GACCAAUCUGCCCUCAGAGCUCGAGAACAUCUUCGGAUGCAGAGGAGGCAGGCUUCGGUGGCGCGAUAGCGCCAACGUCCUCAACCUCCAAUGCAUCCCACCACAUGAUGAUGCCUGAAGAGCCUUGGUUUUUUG

Variants of: B1
measurement description: polymerase ribozyme fitness, log enrichment relative to wild type (log ratio); higher = more active; in vitro selection for triplet polymerase activity
reported endpoint: polymerase ribozyme fitness (log ratio)

mutation string	value reported
G71C C114U G122A U129A	-4.82
A46G G47A U59A	-0.512
C12A U96A A121G	-0.355
U9A A18U U92C	-2.53
C11G G52A C99U U106G	-4.99
G60A C82A U106A G120A	0.0586
C22A G120U U131A	-4.18
C40U U78C U132A	-1.65
G10C C13A C40A G42U G52U C72A	-5.16
G35C C97A	-5.43
A27U C76U A95G U130G	-4.08
A24G A41C	-2.27
A16U C62A A105C	-4.73
C8A G47U C73G C82U	-1.82
C15A U33C A83U C101G G117C	-7.47
C3A C13U C62U G113U	-4.41
U38C G48U A68G G122A C123U	-3.71
C22G A37C U92C G120C	-4.95
A43U G44A G61C A84C A90U C102U C123U	-4.59
C56G C72U C88U U106A U133A	-1.24
U7A A66G U87C C94U G110U	-2.5
A37C A43U C49G	-3.33
A16C C53U	-2.99
